The measurements presented in this section are drawn from patent US9975921B2.

- assay-comment: 12 month stability study: DSC (USP <891>)
- Format: physicochemical
- experimental-parameters: 25° C. 60% RH, 6 months
test-readout: DSC Peak (°C)
Field: numeric (°C). Do not append units.

For the molecule shown here, "CN(C)N(C)C(=O)[C@@]1(Cc2ccccc2)CCCN(C(=O)[C@@H](Cc2c[nH]c3ccccc23)NC(=O)C(C)(C)N)C1" , give the reported DSC Peak.
117
